- experiment description: Pharmacokinetics after bolus intradermal injection in an adult rat
- Assay type: in vivo
- condition notes: rat, in vivo, intradermal bolus injection, 0.9 mg, adult rat; intradermal bolus injection 0.9 mg in 0.1 ml saline of equimolar mixture; read-out: T1/2 half life
Square brackets hold non-standard residues; d marks the D form. Peptide text beside a SMILES is read from it. pGlu = O=C1CC[C@@H](C(=O)O)N1
measure: half-life

CC(C)C[C@H](NC(=O)[C@@H]1CCC(=O)N1)C(=O)N[C@@H](CCC(N)=O)C(=O)N1CCC[C@H]1C(=O)N[C@@H](Cc1ccccc1)C(=O)N1CCC[C@H]1C(=O)N[C@@H](CCC(N)=O)C(=O)N1CCC[C@H]1C(=O)N[C@@H](CCC(=O)O)C(=O)N[C@@H](CC(C)C)C(=O)N1CCC[C@H]1C(=O)N[C@@H](Cc1ccc(O)cc1)C(=O)N1CCC[C@H]1C(=O)N[C@@H](CCC(N)=O)C(=O)N1CCC[C@H]1C(=O)N[C@@H](CCC(N)=O)C(N)=O [NPL001, pyroELQPFPQPELPYPQPQ-amide] ([pGlu]LQPFPQPELPYPQPQ-NH2) has a reported half-life of 26 to 28 min
